// values below are reported kon
Biological target: T1, human PD-1-his protein (Cat#:PD1-H5221, Acro biosystems Inc.) (human, UniProt Q15116 25-167)
T1 construct: not shown: his tag
T1 sequence (Q15116 25-167 limits assumed): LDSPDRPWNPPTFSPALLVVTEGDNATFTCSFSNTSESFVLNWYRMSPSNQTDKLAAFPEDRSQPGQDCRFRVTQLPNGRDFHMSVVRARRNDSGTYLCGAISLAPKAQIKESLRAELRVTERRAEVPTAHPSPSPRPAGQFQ
Experiment: BLI (Octet RED96), supernatant antibody captured on AHC sensor, human PD-1-his in solution, 1:1 fit
Write down the numeric answer in M⁻¹ s⁻¹ and omit the unit.

Per the records, this binder ( humanized antibody huE1A9C8A7-V11 (antibody, human IgG4 S228P, kappa, V domains shown, Human IgG4/kappa) VH: QVQLVQSGAEVVKPGASVKISCKASGYTFTDYVMHWVRQAPGQSLEWIGVISTYHIPAVYNQKFKGKATMTRDTSTSTVYLELSSLRSEDTAVYYCAREVYGDSYYFDVWGQGTTVTVSS VL: DIVMTQTPLSLPVTPGEPASISCRSSQSIVHSNGNTYLEWYLQKPGQSPQLLIYKVSNRFSGVPDRFSGSGSGTDFTLKISRVEAEDVGVYYCFQGSHVPYTFGGGTKVEIKR ) has kon equal to 194000

Per the records, this binder ( humanized antibody huE1A9C8A7-V8 (antibody, human IgG4 S228P, kappa, V domains shown, Human IgG4/kappa) VH: QVQLVQSGAEVVKPGASVKISCKASGYTFTDYVMHWVRQAPGQSLEWMGVISTYHIPAVYNQKFKGKATMTVDTSTSTVYLELSSLRSEDTAVYYCAREVYGDSYYFDVWGQGTTVTVSS VL: DIVMTQTPLSLPVTPGEPASISCRSSQSIVHSNGNTYLEWYLQKPGQSPQLLIYKVSNRFSGVPDRFSGSGSGTDFTLKISRVEAEDVGVYYCFQGSHVPYTFGGGTKVEIKR ) has kon equal to 258000

Per the records, this binder ( humanized antibody huE1A9C8A7-V10 (antibody, human IgG4 S228P, kappa, V domains shown, Human IgG4/kappa) VH: QVQLVQSGAEVVKPGASVKISCKASGYTFTDYVMHWVRQAPGQSLEWIGVISTYHIPAVYNQKFKGKVTMTVDTSTSTVYLELSSLRSEDTAVYYCAREVYGDSYYFDVWGQGTTVTVSS VL: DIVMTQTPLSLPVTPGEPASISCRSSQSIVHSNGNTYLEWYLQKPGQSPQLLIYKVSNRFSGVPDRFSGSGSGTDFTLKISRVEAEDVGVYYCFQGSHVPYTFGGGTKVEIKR ) has kon equal to 242000

Per the records, this binder ( humanized antibody huE1A9C8A7-V4 (antibody, human IgG4 S228P, kappa, V domains shown, Human IgG4/kappa) VH: QVQLVQSGAEVVKPGASVKISCKASGYTFSDYVMHWMRQAPGQSLEWIGVISTYHIPAVYNQKFKGKATMTVDTSTSTVYLELSSLRSEDTAVYYCAREVYGDSYYFDVWGQGTTVTVSS VL: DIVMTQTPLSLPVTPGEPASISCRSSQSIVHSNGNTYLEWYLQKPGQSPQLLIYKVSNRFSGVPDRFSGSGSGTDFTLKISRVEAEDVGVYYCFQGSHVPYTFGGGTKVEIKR ) has kon equal to 182000

Per the records, this binder ( humanized antibody huE1A9C8A7-V7 (antibody, human IgG4 S228P, kappa, V domains shown, Human IgG4/kappa) VH: QVQLVQSGAEVVKPGASVKISCKASGYTFTDYVMHWVRQAPGQGLEWIGVISTYHIPAVYNQKFKGKATMTVDTSTSTVYLELSSLRSEDTAVYYCAREVYGDSYYFDVWGQGTTVTVSS VL: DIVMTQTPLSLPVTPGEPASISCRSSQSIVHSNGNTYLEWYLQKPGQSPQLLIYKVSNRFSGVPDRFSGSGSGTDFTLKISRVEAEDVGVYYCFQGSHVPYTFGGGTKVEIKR ) has kon equal to 237000
